Test system: A549
Test: cells
Settings: Homo sapiens, A549, 24 h
Description: Antiproliferative activity against human A549 cells after 24 hrs by MTT assay
property label: IC50 (µM)

A selection of reference data follows.
- structure smiles string: "NS(=O)(=O)c1ccc(-n2nc(C(=O)N/N=C/c3c(Cl)c4ccccc4oc3=O)cc2-c2ccc(O)cc2)cc1"
  recorded number: 26.4
- structure smiles string: "NS(=O)(=O)c1ccc(-n2nc(C(=O)N/N=C/c3c(Cl)c4ccccc4oc3=O)cc2-c2ccc([N+](=O)[O-])cc2)cc1"
  recorded number: 3.85
- structure smiles string: "NS(=O)(=O)c1ccc(-n2nc(C(=O)N/N=C/c3c(Cl)c4ccccc4oc3=O)cc2-c2ccc(F)cc2)cc1"
  recorded number: 11.2
- structure smiles string: "Cc1ccc(-c2cc(C(F)(F)F)nn2-c2ccc(S(N)(=O)=O)cc2)cc1"
  recorded number: 15.6

(I) COc1ccc(-c2cc(C(=O)N/N=C/c3c(Cl)c4ccccc4oc3=O)nn2-c2ccc(S(N)(=O)=O)cc2)cc1OC
(II) COc1cc(-c2cc(C(=O)N/N=C/c3c(Cl)c4ccccc4oc3=O)nn2-c2ccc(S(N)(=O)=O)cc2)cc(OC)c1OC
// select label with min value of measured IC50 from [ I , II ] Which one? Tell me its label.
II
